Target: CD18-independent counter-receptor for ICAM-R on Jurkat cells
Experiment: Jurkat cell adhesion to plate-bound shICAM-R, peptide 1-2 mg/ml
experimental-endpoint: % Inhibition of cell binding to shICAM-R (%)
Answers are plain numbers, in %.

DGQST (also called ICAM-1 70-74) [ICAM-1 domain 1 peptide DGQST, residues 70-74] = 9

For each listed entry, give its % Inhibition of cell binding to shICAM-R.
1. GDQML (also called ICAM-R 230-234) [ICAM-R domain 3 peptide GDQML, residues 230-234]
2. NGSQI (also called ICAM-R 72-76) [ICAM-R domain 1 peptide NGSQI, residues 72-76]
3. GDQRL (also called ICAM-1 228-232) [ICAM-1 domain 3 peptide GDQRL, residues 228-232]
4. GERREA (also called ICAM-R 271-276) [ICAM-R domain 3 peptide, residues 271-276]
5. EKIALET (also called ICAM-R 32-38) [ICAM-R domain 1 peptide, residues 32-38]

Resp:
1: 36; 2: 17; 3: 22; 4: 11; 5: 10
